Ref: patent US20040072824A1

Parameter cytotoxicity at 10 µM: see the listing below.
Test system: blastic cells from AML patients
Protocol: Inhibition of viability of fresh leukemic cells (trypan blue exclusion)
Assay type: cell-based, human
Measurement Conditions: Homo sapiens, 72 h, patient ID 3, FAB AML2; 10^-5 M; day 3; read-out: In Vitro Percent Inhibition of Viability

Before answering, review these 4 worked examples.
| Molecule | cytotoxicity at 10 µM |
| --- | --- |
| Fc1ccc([C@@H]2CCNC[C@H]2COc2ccc3c(c2)OCO3)cc1 [A37, Paroxetine] | 67% |
| CN(C)CCCN1c2ccccc2Sc2ccc(Cl)cc21 [S59, chlorpromazine] | 48% |
| CN[C@H]1CC[C@@H](c2ccc(Cl)c(Cl)c2)c2ccccc21 [SQ42, sertraline] | 83% |
| CSc1ccc2c(c1)N(CCC1CCCCN1C)c1ccccc1S2 (centres unmarked) [S60, thioridazine] | 91% |

Turning now to a further molecule:
Input: I am curious: what cytotoxicity at 10 µM value has been reported for OCCN1CCN(CCCN2c3ccccc3Sc3ccc(Cl)cc32)CC1 [S64, perphenazine] ?
Output: 31%
